Origin of measurements: ChEMBL document CHEMBL1201862

Tested on: SK-MEL-5
assay_overview: NCI tumour cell line growth inhibition, 48 h
Active and inactive are the calls of the source. Rule as the data show it: active = GI50 up to about 1.1 µM and inactive = higher.
quantity: GI50

1) COC(OC)[C@@H]1OC[C@H](n2ccc(=O)[nH]c2=O)[C@H]1O	> 100 µM (inactive)
2) COC(=O)/C(C#N)=C1\CCC(C(=O)OC)N1C (centres undefined)	> 100 µM (inactive)
3) CCOc1ccc2c(c1)[n+]([O-])c(C(N)=O)c(N)[n+]2[O-]	> 100 µM (inactive)
4) N#CC(C#N)=CNC(=S)Nc1ccc(S(=O)(=O)Nc2nccs2)cc1	> 100 µM (inactive)
5) O=C(CSc1nc2ccccc2s1)c1sc2sc3ccccc3[n+]2c1[O-]	> 100 µM (inactive)
6) CCN(CC)CCOc1ccccc1/C=C/c1noc2ccccc12	3.79 µM (inactive)
7) Cc1nc(/C(=N\n2cnnc2)Nc2ccc(Br)cc2)no1	> 100 µM (inactive)
8) CCOC(=O)/C(C#N)=C\C=C1/C=CN=C2NCCN21	> 100 µM (inactive)
9) Cc1ccc(Cc2n[nH]c(=O)n2-c2ccccc2)cc1	> 100 µM (inactive)
10) Cc1cc(C)c2nccc(NCCCN(C)C)c2c1[N+](=O)[O-]	13.5 µM (inactive)
11) CC(C)/C(Cl)=N/OC(=O)Nc1cccc(C(F)(F)F)c1	8.05 µM (inactive)
12) CN(C)CCNc1ccc(NCC[N+](C)(C)Cc2ccc([N+](=O)[O-])cc2)c2c1C(=O)c1c(O)ccc(O)c1C2=O	10.8 µM (inactive)
13) COc1ccc(C)cc1Nc1nnc(-c2ccccc2N)s1	13.7 µM (inactive)
14) CN(C)CCn1c(=O)oc2cc(C(=O)CN3CCOCC3)ccc21	> 100 µM (inactive)

====

Listing of recorded GI50 by entry.
Tested on: M14
assay_overview: NCI tumour cell line growth inhibition, 48 h
Active and inactive are the calls of the source. No stated cut-off is given here; in the data, active = GI50 up to about 1.1 µM and inactive = higher.
quantity: GI50

1. COc1cc(-c2ccc(Nc3ccccc3C(=O)O)c(OC)c2)ccc1Nc1ccccc1C(=O)O	26.5 µM (inactive)
2. C[C@H]1ON2CCC[C@@H]2[C@@H]1C(=O)N1C2CC3CCC2(CS1(=O)=O)C3(C)C (stereo partly drawn)	> 100 µM (inactive)
3. CN(C)c1ccc(-c2cc(O)c3cc4c(cc3n2)OCO4)cc1	> 100 µM (inactive)

====

Test system: U-251
assay_overview: NCI tumour cell line growth inhibition, 48 h
Activity calls are given as the source filed them. No stated cut-off is given here; in the data, active = GI50 up to about 1.1 µM and inactive = higher.
quantity: GI50

1. C/C(=N\NC(=O)c1ccncc1)c1cccc(F)c1	> 10 µM (inactive)
2. CCCCC1(C)C=C/C(=C2/C(=O)O/C(=C\C(=O)O)C2=O)O1 (stereo not drawn)	> 100 µM (inactive)
3. O=C1CCC2C(O)c3cc4c(cc3C(c3ccc5c(c3)OCO5)N12)OCO4 (stereo not drawn)	26.1 µM (inactive)
4. COc1ccccc1NC(=O)C(=O)C(C(=O)c1ccccc1F)C1OC(=O)c2ccccc21 (stereo not drawn)	14.3 µM (inactive)
5. CCOC(=O)/C(=N\Nc1ccc(-n2c(C)nc3ccc(Br)cc3c2=O)cc1)C(C)=O	59.6 µM (inactive)
6. Cc1nn2c(=O)c([N+](=O)[O-])c(/C=C/c3ccc(F)cc3)nc2s1	4.84 µM (inactive)
7. C=C(CC[C@@H](C)[C@H]1CC[C@H]2[C@@H]3C[C@@H](O)[C@H]4C[C@@H](O)CC[C@]4(CO)[C@H]3CC[C@]12C)C(C)C	6.44 µM (inactive)
8. CCOC(=O)/C(C#N)=N\Nc1ccc(-n2c(C)nc3ccc(Br)cc3c2=O)cc1	91.2 µM (inactive)

====

Test system: Hs-578T
assay_overview: NCI tumour cell line growth inhibition, 48 h
Active and inactive are the calls of the source. Cut-off read from the data, not from the text of the source: active = GI50 up to about 1.1 µM and inactive = higher.
Labels: label 1 (active), label 0 (inactive)

1) CCOC(=O)c1ccc(/N=C/C=C(\Nc2ccc(C(=O)OCC)cc2)C23CC4CC(CC(C4)C2)C3)cc1	label 0
2) O=C1c2ccccc2CC12CCC1(CC2)OCCO1	label 0
3) CCCc1nnc2sc(COc3ccc(OCc4nn5c(CCC)nnc5s4)c(Cl)c3)nn12	label 0
4) CN(C)c1ncc(-c2c[nH]c3ccccc23)nc1-c1c[nH]c2ccccc12	label 0
5) COC(=O)C(=O)C(C(=O)C(=O)Nc1ccccc1C(C)=O)c1nc2ccc(C(=O)c3ccccc3)cc2nc1O (centres undefined)	label 0
6) O=C(CSCC(=O)N/N=C/c1ccc(F)cc1)N/N=C/c1ccc(F)cc1	label 0
7) CO[C@H](C(=O)[C@@H](O)[C@@H](C)O)[C@@H]1Cc2cc3cc(OC4CC(OC5CC(O)C(O)C(C)O5)C(O)C(C)O4)c(C)c(O)c3c(O)c2C(=O)[C@H]1OC1CC(OC2CC(OC3CC(C)(O)C(O)C(C)O3)C(O)C(C)O2)C(O)C(C)O1 (some centres undefined)	label 1
8) COc1cc2nn(-c3ccccc3)nc2c2nonc12	label 0
9) CC(=O)C(C(=O)c1ccc(C)cc1)[C@H]1OC(C)(C)O[C@H]1[C@H]1COC(C)(C)O1 (some centres undefined)	label 0

====

System: HL-60
assay_overview: NCI tumour cell line growth inhibition, 48 h
Calls of active or inactive are those of the source. Cut-off read from the data, not from the text of the source: active = GI50 up to about 1.1 µM and inactive = higher.
quantity: GI50

1) O=[N+]([O-])c1cccc(C2ON2C2CCCCC2)c1 (stereo not drawn)	17.5 µM (inactive)
2) O=c1c2cc(Br)ccc2nc(-c2ccccc2Cl)n1NCC1(O)OCC(O)C(O)C1O (stereo not drawn)	33.6 µM (inactive)
3) C=CCC1(CC)C(=O)NC(=O)NC1=O	> 100 µM (inactive)
4) COC(=O)C(C(=O)C(=O)Nc1ccc(C(F)(F)F)cc1[N+](=O)[O-])c1csc(-n2nc(-c3ccccc3)cc2-c2ccccc2)n1 (stereo not drawn)	> 100 µM (inactive)
5) O=Cc1ccc2c(c1)CC1(Cc3ccccc3C1)C2	19.4 µM (inactive)
6) CC(=O)N1C(Nc2nccs2)CCN1c1ccccc1 (stereo not drawn)	> 10 µM (inactive)
7) O=C1C(N2C(=O)c3ccccc3C2=O)CN1C(COCc1ccccc1)c1ccc(OCc2ccccc2)cc1 (stereo not drawn)	> 100 µM (inactive)
8) O=C1c2ccccc2CC12CCC1(CC2)OCCO1	> 100 µM (inactive)
9) CC(C)(C)c1cc(Br)c(O)c(CN(Cc2cc(C(C)(C)C)cc(Br)c2O)C2CCCCC2)c1	17.6 µM (inactive)
10) CCN(CC)CCOc1ccccc1/C=C/c1noc2ccccc12	7.76 µM (inactive)
11) CSc1ccc(/C=C2\N=C(c3ccccc3)N(c3nc4ccc(Sc5ccccc5)cc4[nH]3)C2=O)cc1	14.2 µM (inactive)
12) Cc1cccc(C)c1CO	> 100 µM (inactive)
13) CC(=O)/C(=C/n1c(=S)sc2ccccc21)C(=O)Nc1ccccc1C	31.6 µM (inactive)

====

Test system: EKVX
assay_overview: NCI tumour cell line growth inhibition, 48 h
Active and inactive are the calls of the source. No stated cut-off is given here; in the data, active = GI50 up to about 1.1 µM and inactive = higher.
Labels: 1 (active), -1 (inactive)

1. COC(=O)C1=C(OC)[C@H]2C#C/C=C\C#C[C@@H]3Nc4c(cc(O)c5c4C(=O)c4ccccc4C5=O)[C@]24O[C@@]34[C@H]1C	1
2. NCCCCCC(CCN)SCC1OC(n2cnc3c(N)ncnc32)C(O)C1O (stereo unspecified)	-1
3. O=C1CN(c2ccccc2)C(=O)CN1NCNN1CC(=O)N(c2ccccc2)CC1=O	-1
4. CC(C)OC1=C(CC2(C)OCCO2)C(=O)C12OCCO2	-1
5. CCOP(=O)(O)CC1OC(CO)C(O)C1O (stereo unspecified)	-1
6. O=[N+]([O-])c1cccc(C2ON2C2CCCCC2)c1 (stereo unspecified)	-1
7. N#Cc1ccccc1NC(=O)C(=O)C(C(=O)c1ccncc1)C1OC(=O)c2ccccc21 (stereo unspecified)	-1
8. COc1c(O)c(C=O)c2c(O)c(-c3c(C)cc4c(C(C)C)c(OC)c(O)c(C=O)c4c3O)c(C)cc2c1C(C)C [6,6'-METHOXYGOSSYPOL]	-1
9. CN(C)Cc1c(O)ccc2c1c1c(n2C)C(=O)c2ccccc2C1=O	-1
10. C[C@@H]1OC(=O)N2CCCC(=C3SCCCS3)C12 (stereo partly specified)	-1
11. CCOC(=O)[C@H]1Nc2ccc(O)cc2C2c3ccccc3CC21 (stereo partly specified)	-1
12. c1ccc(-c2cnc(-c3ccc(-c4ncc(-c5ccccc5)o4)cc3)o2)cc1	-1
13. CCc1n[nH]c(=O)n1CC	-1
14. CC(C)/C(Cl)=N/OC(=O)Nc1cccc(C(F)(F)F)c1	-1
15. CC(C)(C)SC1=CCC[C@@H](P(=O)(c2ccccc2)c2ccccc2)[C@@H]2CCC[C@@H]12	-1
16. CCOc1ccc(/N=N/c2ccc3oc(=O)c(/C(C)=N/NC(=O)CC(=O)Nc4cccc(OC)c4)cc3c2)cc1	-1
17. COC(=O)[C@]1(c2cc3ccccc3[nH]2)CC2CNC1C1OC(C)(C)OC21 (stereo partly specified)	-1
18. COC(OC)[C@@H]1OC[C@H](n2ccc(=O)[nH]c2=O)[C@H]1O	-1
19. O=c1c2cc(Br)ccc2nc(-c2ccccc2Cl)n1NCC1(O)OCC(O)C(O)C1O (stereo unspecified)	-1
20. COC(=O)C1=C(C)C(=O)[C@H]2C(C(=O)OC)CCCC[C@@H]12 (stereo partly specified)	-1
21. COc1cc(C(=O)N(Cc2cccnc2)C(=S)N(Cc2cccnc2)C(=O)c2cc(OC)c(OC)c(OC)c2)cc(OC)c1OC	-1
